- Test system: OVCAR-5 ovarian
- assay.procedure: NCI-60 one-dose screen, 48 h (100 = growth as untreated, 0 = no growth, -100 = all killed)
- study.conditions: 10 µM unless noted
The panel holds about 83,000 compounds, 20% with a hit somewhere; the sample as a whole holds those more often.
Recorded measurements of growth, one per entry
Give just the number in %; leave the unit off.

Some solved cases for reference:
| compound | recorded.metric | unit.descriptor | reading |
| --- | --- | --- | --- |
| Cc1ccc(NS(=O)(=O)c2ccc(-c3cnc(C4CC4)o3)cc2)cc1C | growth | % | 37.6 |
| COc1ccccc1NS(=O)(=O)c1ccc2oc(SC(C)C)nc2c1 | growth | % | 82.1 |

Query block: Need growth, item CCOC(=O)c1sc2nc(-c3cccc(OC)c3)nc(N3CCOCC3)c2c1C
Result block: 96.6

Query block: What value of growth has been reported for the following compound? COc1ccc(/C=C/C(=O)c2cc(O)ccc2O)cc1
Result block: 108

Query block: Find the recorded growth belonging to O=C1OC(c2ccccc2)C(O)=C1c1ccccc1 (configuration not stated) and report it.
Result block: 99.2

Query block: Request the reported growth associated with C=CC(=O)Nc1cccc(-c2nc(SC)nc(NCc3ccccc3)c2C#N)c1
Result block: 85.4

Query block: # get_value(readout='growth', item= O=c1ccccc(-c2ccc(-c3ccco3)cc2)c1O )
Result block: 54.9

Query block: Can you look up the measured growth of Cn1cc(-c2nonc2-c2c[nH]c3ccccc23)c2cccnc21 for me?
Result block: 72.3

Query block: Need growth of Cc1ccc2c(C(C[N+](=O)[O-])c3ccccc3F)c(-c3ccccc3)[nH]c2c1 (configuration not stated) , thanks.
Result block: 74.4

Query block: Sample N#Cc1c(N)n(CCNC(=O)c2ccccc2)c2nc3ccccc3nc12 — what was its growth?
Result block: 79

Query block: # get_value(readout='growth', item= O=C(COc1ccc(/C=C2\CSc3ccccc3C2=O)cc1)Nc1nccs1 )
Result block: 92.6

Query block: What value of growth has been recorded for this entry: NC1=C(Cl)C(=O)c2ccc(S(N)(=O)=O)cc2C1=O
Result block: -87.7

Query block: Reported growth, compound O=[N+]([O-])c1ccc(Nc2nc(NCCN3CCOCC3)ncc2[N+](=O)[O-])cc1 : ____
Result block: 98.6

Query block: Recorded growth of C(=N/Nc1ncc(-c2cc3cc(-c4ccccc4)ccc3o2)s1)/c1cccs1 , please.
Result block: 93.9

Query block: Fill in: growth of CN(C)CCN1C(=O)c2cccc3c(N)ccc(c23)C1=O is ___
Result block: 36.5

Query block: Given the entry Cn1cc(-c2nonc2-c2cn(C)c3ccc(F)cc23)c2cc(F)ccc21 , report its measured growth.
Result block: 92

Query block: // lookup growth for COc1ccc(CCNc2nc(SC)nc(-c3cccc([N+](=O)[O-])c3)c2C#N)cc1OC
Result block: 87.5

Query block: Which growth value is on record for Cc1cc(C)c2nc3nc(C)cc(C)c3c(N)c2c1 ?
Result block: 28.7

Query block: # lookup: growth of Cc1oc(-c2ccc(Cl)cc2Cl)cc1C(=O)Nc1nccs1
Result block: 83.1

Query block: GET /values?readout=growth&item= CC(C)(O)c1cn(CCCCN2C(=O)C(=O)c3ccccc32)nn1
Result block: 96.4

Query block: Need growth of CCCCCCN(CCCCCC)CCC(O)c1ccc2ccccc2c1 (configuration not stated) , thanks.
Result block: 69.5

Query block: Need growth of COc1cc2c(cc1-c1c(C)noc1C)ncc1nc(C3CCOCC3)n([C@H](C)COC(F)F)c12 , thanks.
Result block: 68.4
